- experiment: Pharmacokinetics of pimasertib (plasma concentrations) in combination
- Format: in vivo, human
- study_conditions: human, plasma, oral, DL1 SAR405838 200 mg QD + pimasertib 45 mg BID; C1D1; read-out: Pimasertib t1/2 (converted)
attribute_measured: half-life (h)
Please reply with the bare figure in h and do not write the unit itself.

Kindly indicate its recorded half-life. Item: O=C(NC[C@H](O)CO)c1ccncc1Nc1ccc(I)cc1F
4.76

* * *

- experiment: Pharmacokinetics of pimasertib (plasma concentrations) in combination
- Type: in vivo, human
- study_conditions: human, plasma, oral, DL1 SAR405838 200 mg QD + pimasertib 45 mg BID; C1D2; read-out: Pimasertib AUC0–12, mean ± SD
attribute_measured: AUC(0-t) (ng·h/mL)
Output spec: scalar in ng·h/mL, unitless text.

Retrieve AUC(0-t) measured for O=C(NC[C@H](O)CO)c1ccncc1Nc1ccc(I)cc1F [pimasertib] and print it.
689

* * *

- experiment: Pharmacokinetics of pimasertib (plasma concentrations) in combination
- Assay type: in vivo, human
- study_conditions: human, plasma, oral, DL2a SAR405838 200 mg QD + pimasertib 60 mg QD; C1D2; read-out: Pimasertib Cmax, mean ± SD
attribute_measured: Cmax (µg/mL)
Field: numeric (µg/mL). Do not append units.

Output Cmax of O=C(NC[C@H](O)CO)c1ccncc1Nc1ccc(I)cc1F
0.303

* * *

- experiment: Pharmacokinetics of SAR405838 (whole-blood concentrations) in combination
- Type: in vivo, human
- study_conditions: human, whole blood, oral, DL2a SAR405838 200 mg QD + pimasertib 60 mg QD; C1D2; read-out: SAR405838 t1/2 (converted)
attribute_measured: half-life (h)
Your answer should be a plain number; it is taken to be in h.

Give half-life for CC(C)(C)C[C@@H]1N[C@@H](C(=O)N[C@H]2CC[C@H](O)CC2)[C@H](c2cccc(Cl)c2F)[C@]12C(=O)Nc1cc(Cl)ccc12 [SAR405838]
8.86

* * *

- experiment: Pharmacokinetics of SAR405838 (whole-blood concentrations) in combination
- Assay type: in vivo, human
- study_conditions: human, whole blood, oral, DL3a SAR405838 300 mg QD + pimasertib 60 mg QD; C2D1; read-out: SAR405838 Cmax, mean ± SD
attribute_measured: Cmax
Note to self: number, then unit, no commentary.

Item CC(C)(C)C[C@@H]1N[C@@H](C(=O)N[C@H]2CC[C@H](O)CC2)[C@H](c2cccc(Cl)c2F)[C@]12C(=O)Nc1cc(Cl)ccc12 [SAR405838] : provide Cmax
1440 ng/mL
